# Target under test: T1, human IL-17B (human, UniProt Q9UHF5 21-180)
# T1 construct: expressed in E. coli; also called hIL-17B
# T1 sequence (looked up): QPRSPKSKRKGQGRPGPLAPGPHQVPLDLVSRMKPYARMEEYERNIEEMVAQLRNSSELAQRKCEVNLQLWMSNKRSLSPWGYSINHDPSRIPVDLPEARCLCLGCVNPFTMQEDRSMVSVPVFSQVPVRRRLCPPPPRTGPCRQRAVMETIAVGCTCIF
# Protocol details: SPR, cytokine on chip
Quantity: binding result

11C08 (VHH, Class 4) VHH: EVQLVESGGGLVQAGGSLRLSCAASGVIFRLNAMGWYRAAPGKQRELVAIIVNGGSTNYADSVKGRFTISRDSAKNAVYLQMNSLKPEDTAVYYCYYNIPGDVYWGQGTQVTVSS    no binding
09G10 (VHH, Class 2) VHH: EVQLVESGGGLVQAGGSLRLSCAASDSVFTAKAVGWYRQPPGLQREWVAIITSGGKTNYADSSVKGRFTVSVDKVKNTVTLQMNSLKPEDTAVYYCYAQWMGRDYWGQGTQVTVSS    no binding
16A04 (VHH, Class 3; also called IL17MS16A04) VHH: EVQLVESGGGLVQAGGSLRLSCAASGRTFSSYVVGWFRQAPGKEREFIGAISGSGDSIYYAVSEKDRFTISRDNGKNTLYLQMSSLKAEDTAVYYCTADQEFGYLRFGRSEYWGQGTQVTVSS    no binding
03C07 (VHH, Class 2) VHH: EVQLVESGGGLVQAGGSLRLSCAASGFTFDDYAIGWFRQAPGKEREAVSCFSSSDGSIYYADSVKGRFTISSDNAKNTVYLQMNSLKPEDTAVYYCAGGGGSYYYTQLNYCYDMDYWGKGTQVTVSS    no binding
